Molecular target: T1, Full-length human TIGIT on CHO cells overexpressing TIGIT (human, UniProt Q495A1 22-244)
T1 construct: also called TIGIT-CHO cells; CHO cells overexpressing human TIGIT
T1 sequence: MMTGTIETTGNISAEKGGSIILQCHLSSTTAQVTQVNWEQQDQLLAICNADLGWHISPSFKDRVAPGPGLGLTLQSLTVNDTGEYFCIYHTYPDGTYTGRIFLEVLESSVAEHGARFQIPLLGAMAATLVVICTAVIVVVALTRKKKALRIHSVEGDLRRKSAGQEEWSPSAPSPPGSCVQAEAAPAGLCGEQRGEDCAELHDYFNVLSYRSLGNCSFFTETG
Assay: cell ELISA on fixed CHO cells overexpressing human TIGIT
endpoint.label: pEC50
Expect pEC50 as a plain number equal to -log10 of the molar concentration.

binder: h1709-10 (antibody, human IgG4 S228P, kappa, V domains shown, also called humanized TIGIT antibody h1709-10) VH: EVQLVQSGAEVKKPGASVKVSCKASGYTFTDYYMHWVRQAPGQGLEWMGLVYPYNDNTGYNRKFKGRVTMTVDTSTSTVYMELNSLRSEDTAVYYCARGGPSNWNYFDYWGQGTLVTVSS VL: DIQMTQSPSSLSASVGDRVTITCKASQNVVTAVAWYQQKPGKSPKLLIYSASNRYTGVPDRFSGSGSGTDFTLTISSLQPEDFATYFCQQYTLYPLTFGGGTKVEIKR
pEC50: 10.25
//
binder: h1707-02 (antibody, human IgG4 S228P, kappa, V domains shown, also called humanized TIGIT antibody h1707-02) VH: EVQLVESGGGLVQPGGSLRLSCAASGFTFSDYHMYWVRQAPGKGLEWVAYISKGGISTYYPDTVKGRFTISRDNAKNSLYLQMSRLRAEDTAVYYCARQSSYDFAMDYWGRGTLVTVSS VL: DIQMTQSPSFLSASVGDRVTITCKASQDVGTSVAWYQQKPGKAPKLLIYWASARHTGVPSRFSGSGSGTDFTLTISSLQPEDFATYYCQQYSSYPLTFGQGTKLEIKR
pEC50: 10.06

Please give measured pEC50 of the following entry: h1708-04 (antibody, human IgG4 S228P, kappa, V domains shown, also called humanized TIGIT antibody h1708-04) VH: EVQLVQSGAEVKKPGASVKVSCKASGYTFTNYWMHWVRQAPGQGLEWMGRIDPDSTGSKYNEKFKTRVTMTRDTSTSTVYMELSSLRSEDTAVYYCAREGAYGYYFDYWGQGTLVTVSS VL: DIQMTQSPSSLSASVGDRVTITCRASENIYSYLAWYQQKPGKSPKLLIYNARTLAEGVPSRFSGSGSGTDFTLTISSLQPEDFATYYCQYHSGSPLPFGGGTKVEIKR
10.07

Give the reported pEC50 for this binder. h1710-01 (antibody, human IgG4 S228P, kappa, V domains shown, also called humanized TIGIT antibody h1710-01) VH: EVQLVQSGAEVKKPGASVKVSCKASGYTFTNYYMHWVRQAPGQGLEWMGRIDPTSGATKYNDNFKGRVTMTRDTSTSTVYMELSSLRSEDTAVYYCAREGGFGYYFDYWGQGTTVTVSS VL: DIQMTQSPSSLSASVGDRVTITCRTSENIFTYLAWYQQKPGKAPKLLIYNAKTFAEGVPSRFSGSGSGTDFTLTISSLQPEDFATYYCQHHYGIPLPFGQGTKLEIKR
10.11

Annotate the binder 10A7 hIgG4 (antibody, V domains shown) VH: EVQLVESGGGLTQPGKSLKLSCEASGFTFSSFTMHWVRQSPGKGLEWVAFIRSGSGIVFYADAVRGRFTISRDNAKNLLFLQMNDLKSEDTAMYYCARRPLGHNTFDSWGQGTLVTVSS VL: DIVMTQSPSSLAVSPGEKVTMTCKSSQSLYYSGVKENLLAWYQQKPGQSPKLLIYYASIRFTGVPDRFTGSGSGTDYTLTITSVQAEDMGQYFCQQGINNPLTFGDGTKLEIKR with its measured pEC50.
9.96
